Measured pEC50, listed per entry.
Target: C-terminal catalytic domain of human DNMT3A (hDNMT3A) (Homo sapiens, UniProt Q9Y6K1)
Construct: catalytic domain of human DNMT3A (residues 623–908), produced as described
Sequence (Q9Y6K1 627-912): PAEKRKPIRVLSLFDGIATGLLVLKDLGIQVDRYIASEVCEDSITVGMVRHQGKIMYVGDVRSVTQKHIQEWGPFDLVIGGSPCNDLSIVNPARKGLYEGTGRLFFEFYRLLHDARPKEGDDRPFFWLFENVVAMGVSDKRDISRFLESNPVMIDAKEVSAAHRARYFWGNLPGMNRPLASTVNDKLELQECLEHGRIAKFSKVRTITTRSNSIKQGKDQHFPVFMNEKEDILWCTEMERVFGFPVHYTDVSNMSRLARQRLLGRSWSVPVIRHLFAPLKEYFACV
Test: DNMT3A assay (restriction-based fluorescence assay)
Conditions: catalytic domain of hDNMT3A; means of at least three experiments
pEC50: −log10 of the molar value.

- molecule_smiles: "c1ccc(CN2CCC(Nc3nc(N4CCN(c5ccccc5)CC4)nc4ccccc34)CC2)cc1"
  pEC50: 5.05
- molecule_smiles: "c1ccc(CN2CCC(Nc3nc(N4CCCC4)nc4ccccc34)CC2)cc1"
  pEC50: 4.46
- molecule_smiles: "CN1CCCN(c2nc(NC3CCN(Cc4ccccc4)CC3)c3ccccc3n2)CC1"
  pEC50: 5.00
- molecule_smiles: "c1ccc(CN2CCC(Nc3nc(N4CCN(c5ccccn5)CC4)nc4ccccc34)CC2)cc1"
  pEC50: 4.92
